# TARGET: T1, human GIP receptor (human, UniProt P48546 22-466)
# T1 sequence (looked up): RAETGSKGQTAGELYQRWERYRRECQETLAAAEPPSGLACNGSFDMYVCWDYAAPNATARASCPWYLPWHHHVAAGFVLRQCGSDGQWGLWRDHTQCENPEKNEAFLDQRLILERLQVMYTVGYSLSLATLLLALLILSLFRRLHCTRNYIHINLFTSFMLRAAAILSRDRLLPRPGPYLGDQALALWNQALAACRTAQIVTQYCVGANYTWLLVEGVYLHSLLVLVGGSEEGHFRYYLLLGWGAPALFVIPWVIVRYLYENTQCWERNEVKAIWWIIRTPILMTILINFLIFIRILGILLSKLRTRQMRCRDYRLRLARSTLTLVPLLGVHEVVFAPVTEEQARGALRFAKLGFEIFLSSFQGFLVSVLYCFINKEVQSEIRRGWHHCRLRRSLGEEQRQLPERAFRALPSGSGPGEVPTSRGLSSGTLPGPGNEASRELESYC
# PROTOCOL NOTES: cell-based or functional assay
Bridge positions count the residues as written; N and C are the ends. Square brackets hold non-standard residues; d marks the D form. Ends that are not written are not given here. Aib = CC(C)(N)C(=O)O
Each entry below lists one item and its recorded In vitro activity compared with native peptide (%) vs GIP (cAMP EC50) value.

Example entries begin here.
BINDER	REPORTED VALUE
H[Aib]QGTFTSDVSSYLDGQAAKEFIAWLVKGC [triple agonist of SEQ ID NO: 1]	< 0.1%
H[Aib]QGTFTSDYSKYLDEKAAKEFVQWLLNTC (bridge 16-20) [triple agonist of SEQ ID NO: 29]	< 0.1%

In: State its In vitro activity compared with native peptide (%) vs GIP (cAMP EC50) for this binder: H[Aib]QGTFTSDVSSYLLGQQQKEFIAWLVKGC [triple agonist of SEQ ID NO: 4]
Out: < 0.1%
